Overview of recorded inhibition at 100 µg/mL for various molecules
# SYSTEM_TESTED: COX-2 (Homo sapiens)
# Construct: purchased Cayman Chemical Company 701080
# Sequence (P35354 18-604): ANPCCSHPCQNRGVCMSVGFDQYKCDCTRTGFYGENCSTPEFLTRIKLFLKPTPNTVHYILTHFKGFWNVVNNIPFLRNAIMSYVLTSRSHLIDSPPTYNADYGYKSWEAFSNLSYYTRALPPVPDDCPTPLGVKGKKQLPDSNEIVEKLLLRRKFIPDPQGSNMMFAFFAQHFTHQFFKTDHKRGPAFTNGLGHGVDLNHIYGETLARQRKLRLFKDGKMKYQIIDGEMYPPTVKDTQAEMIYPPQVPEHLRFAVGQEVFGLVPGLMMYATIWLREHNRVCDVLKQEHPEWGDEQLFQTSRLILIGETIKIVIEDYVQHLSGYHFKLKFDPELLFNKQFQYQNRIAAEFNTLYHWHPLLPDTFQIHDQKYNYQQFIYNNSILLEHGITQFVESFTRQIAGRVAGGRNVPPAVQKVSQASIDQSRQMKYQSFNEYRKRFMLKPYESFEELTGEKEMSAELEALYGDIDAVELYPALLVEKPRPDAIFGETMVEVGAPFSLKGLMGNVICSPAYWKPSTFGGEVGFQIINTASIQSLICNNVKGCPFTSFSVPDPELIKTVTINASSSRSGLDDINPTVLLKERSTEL
# PROCEDURE_DETAILS: COX-2 inhibitory screening assay (Cayman kit)
# Format: biochemical
# COND: at 0.100 mg/mL; read-out: COX-2 mean % inhibition ± SD
Your answer should be a plain number; it is taken to be in %.

# MOLECULE, RESULT_UNIT, inhibition at 100 µg/mL
rows = [
    ("O=c1c2cc(Cl)ccc2[nH]c(=S)n1-c1ccc([N+](=O)[O-])cc1 [Compound 3f]", "%", 11.4),
]

Let us examine a further case.
Check the records and state inhibition at 100 µg/mL for COc1cc2[nH]c(=S)n(-c3ccc([N+](=O)[O-])cc3)c(=O)c2cc1OC [Compound 3h] 14.6

Taken from paper PMC10610505.
